What follows is a collection of HepSE_Combined Scores values obtained with Hepatotoxicity.
Measure: HepSE_Combined Scores

{"Molecule": "Nc1cccc2c1CN(C1CCC(=O)NC1=O)C2=O (stereo not given) [LENALIDOMIDE]", "Measure": "HepSE_Combined Scores", "Value": 4}
{"Molecule": "Cc1noc(NS(=O)(=O)c2ccc(N)cc2)c1C", "Measure": "HepSE_Combined Scores", "Value": 2}
{"Molecule": "N#Cc1ccc(C(c2ccc(C#N)cc2)n2cncn2)cc1", "Measure": "HepSE_Combined Scores", "Value": 0}
{"Molecule": "Clc1ccc2c(c1)C(c1ccccc1)=NCc1nncn1-2", "Measure": "HepSE_Combined Scores", "Value": 0}
{"Molecule": "COC(=O)CCC(=O)CN [METHYL AMINOLEVULINATE]", "Measure": "HepSE_Combined Scores", "Value": 0}

* * *

- Test system: Hepatotoxicity

{"Compound": "CN(C)C(=O)Oc1ccc[n+](C)c1 [PYRIDOSTIGMINE]", "HepSE_bilirubinemia": 0}
{"Compound": "c1cnc2cc3c(cc2n1)[C@@H]1CNC[C@H]3C1 [VARENICLINE]", "HepSE_bilirubinemia": 0}
{"Compound": "COCCCC/C(=N\\OCCN)c1ccc(C(F)(F)F)cc1 [FLUVOXAMINE]", "HepSE_bilirubinemia": 0}
{"Compound": "Nc1cc(Cl)c(N=C2NCCN2)c(Cl)c1 [APRACLONIDINE]", "HepSE_bilirubinemia": 0}
{"Compound": "Cc1cn([C@H]2C[C@H](N=[N+]=[N-])[C@@H](CO)O2)c(=O)[nH]c1=O [ZIDOVUDINE]", "HepSE_bilirubinemia": 1}
{"Compound": "CCc1c(C)[nH]c2c1C(=O)C(CN1CCOCC1)CC2 (stereo unspecified) [MOLINDONE]", "HepSE_bilirubinemia": 0}
{"Compound": "CCCc1c2oc(C(=O)[O-])cc(=O)c2cc2c(=O)cc(C(=O)[O-])n(CC)c12.[Na+].[Na+] [NEDOCROMIL SODIUM]", "HepSE_bilirubinemia": 0}
{"Compound": "O=c1[nH]c2ccccc2n1CCCN1CCC(n2c(=O)[nH]c3cc(Cl)ccc32)CC1 [DOMPERIDONE]", "HepSE_bilirubinemia": 0}
{"Compound": "CC(C)C[C@H](NC(=O)[C@@H](COC(C)(C)C)NC(=O)[C@H](Cc1ccc(O)cc1)NC(=O)[C@H](CO)NC(=O)[C@H](Cc1c[nH]c2ccccc12)NC(=O)[C@H](Cc1cnc[nH]1)NC(=O)[C@@H]1CCC(=O)N1)C(=O)N[C@@H](CCCNC(=N)N)C(=O)N1CCC[C@H]1C(=O)NNC(N)=O [GOSERELIN]", "HepSE_bilirubinemia": 0}
{"Compound": "O=C1CC[C@@]2(O)[C@H]3Cc4ccc(O)c5c4[C@@]2(CCN3CC2CC2)[C@H]1O5 [NALTREXONE]", "HepSE_bilirubinemia": 0}
{"Compound": "NCC(CC(=O)O)c1ccc(Cl)cc1 (stereo unspecified) [BACLOFEN]", "HepSE_bilirubinemia": 0}

* * *

Where a SMILES comes first, the peptide text is derived from it. Bridges are numbered along the chain shown (N, C = ends). [ ]: non-standard residue; d: D form. The star is where a group is joined. Threoninol(2S,3R) = C[C@@H](O)[C@H](CO)N*
Endpoint: HepSE_cholecystitis. System: Hepatotoxicity. Items follow.
Measure: HepSE_cholecystitis

{"Molecule": "COc1ccc2c3c1O[C@H]1C[C@@H](O)C=C[C@@]31CCN(C)C2", "Value": 0}
{"Molecule": "N#Cc1ccc(C(c2ccc(C#N)cc2)n2cncn2)cc1", "Value": 0}
{"Molecule": "CC(=O)N(CC(O)CN(C(C)=O)c1c(I)c(C(=O)NCC(O)CO)c(I)c(C(=O)NCC(O)CO)c1I)c1c(I)c(C(=O)NCC(O)CO)c(I)c(C(=O)NCC(O)CO)c1I (configuration not stated)", "Value": 0}
{"Molecule": "NC(=O)C[S+]([O-])C(c1ccccc1)c1ccccc1 (configuration not stated)", "Value": 0}
{"Molecule": "CC(=O)O[C@H]1C[C@@H]2CC[C@@H]3[C@H](CC[C@@]4(C)[C@H]3C[C@H]([N+]3(C)CCCCC3)[C@@H]4OC(C)=O)[C@@]2(C)C[C@@H]1N1CCCCC1", "Value": 0}
{"Molecule": "CCN(C(C)=O)c1cccc(-c2ccnc3c(C#N)cnn23)c1", "Value": 0}
{"Molecule": "COc1ccnc(C[S+]([O-])c2nc3ccc(OC(F)F)cc3[nH]2)c1OC (configuration not stated)", "Value": 1}
{"Molecule": "C[C@@H](O)[C@H]1C(=O)N2C(C(=O)O)=C(S[C@@H]3CN[C@H](C(=O)Nc4cccc(C(=O)O)c4)C3)[C@H](C)[C@H]12", "Value": 1}
{"Molecule": "CC(=O)N(O)CCCCCNC(=O)CCC(=O)N(O)CCCCCNC(=O)CCC(=O)N(O)CCCCCN", "Value": 0}
{"Molecule": "CCN(CC)CCNC(=O)c1cc(Cl)c(N)cc1OC [METOCLOPRAMIDE]", "Value": 0}
{"Molecule": "Clc1ccc(COC(Cn2ccnc2)c2ccc(Cl)cc2Cl)c(Cl)c1 (configuration not stated)", "Value": 0}
{"Molecule": "C[C@]12C/C(=C/O)C(=O)C[C@@H]1CC[C@@H]1[C@@H]2CC[C@@]2(C)[C@H]1CC[C@]2(C)O", "Value": 0}
{"Molecule": "Cc1nc2ccc(CN(C)c3ccc(C(=O)N[C@@H](CCC(=O)O)C(=O)O)s3)cc2c(=O)[nH]1", "Value": 0}
{"Molecule": "COc1ccc2[nH]c([S+]([O-])Cc3ncc(C)c(OC)c3C)nc2c1 (configuration not stated)", "Value": 0}
{"Molecule": "C[C@@H](O)[C@H](CO)NC(=O)[C@@H]1CSSC[C@H](NC(=O)[C@H](N)Cc2ccccc2)C(=O)N[C@@H](Cc2ccccc2)C(=O)N[C@H](Cc2c[nH]c3ccccc23)C(=O)N[C@@H](CCCCN)C(=O)N[C@@H]([C@@H](C)O)C(=O)N1 (H-[dF]CF[dW]KTC-{Threoninol(2S,3R)}; disulfide 2-7)", "Value": 1}
{"Molecule": "COc1ccc2c(c1)c(CC(=O)O)c(C)n2C(=O)c1ccc(Cl)cc1", "Value": 0}
{"Molecule": "CCOc1cc(CC(=O)N[C@@H](CC(C)C)c2ccccc2N2CCCCC2)ccc1C(=O)O [REPAGLINIDE]", "Value": 0}

* * *

Recorded HepSE_jaundice for the following molecules
- Test system: Hepatotoxicity

{"Molecule": "Cc1cccc(C)c1NC(=O)C1CCCCN1C (stereo not given) [MEPIVACAINE]", "HepSE_jaundice": 0}
{"Molecule": "CN1CCN2c3ncccc3Cc3ccccc3C2C1 (stereo not given)", "HepSE_jaundice": 0}
{"Molecule": "CC(C)=CCN1CC[C@]2(C)c3cc(O)ccc3C[C@H]1[C@H]2C [(+)-PENTAZOCINE]", "HepSE_jaundice": 0}
{"Molecule": "C[C@]12C=CC(=O)C=C1CC[C@@H]1[C@@H]2[C@@H](O)C[C@@]2(C)[C@H]1CC[C@]2(O)C(=O)CO", "HepSE_jaundice": 0}
{"Molecule": "CCOC(=O)C1=C[C@@H](OC(CC)CC)[C@H](NC(C)=O)[C@@H](N)C1", "HepSE_jaundice": 0}
{"Molecule": "CC(N)C12CC3CC(CC(C3)C1)C2 (stereo not given)", "HepSE_jaundice": 0}
{"Molecule": "CN1C(=O)CC(C)(c2ccccc2)C1=O (stereo not given) [METHSUXIMIDE]", "HepSE_jaundice": 0}
{"Molecule": "NCC1(CC(=O)O)CCCCC1", "HepSE_jaundice": 1}
{"Molecule": "CN1C(CSCC(F)(F)F)Nc2cc(Cl)c(S(N)(=O)=O)cc2S1(=O)=O (stereo not given) [POLYTHIAZIDE]", "HepSE_jaundice": 1}
{"Molecule": "Cc1ccccc1N1C(=O)c2cc(S(N)(=O)=O)c(Cl)cc2NC1C (stereo not given)", "HepSE_jaundice": 1}
{"Molecule": "CCOC(=O)Nc1ccc2c(c1)N(C(=O)CCN1CCOCC1)c1ccccc1S2", "HepSE_jaundice": 1}
{"Molecule": "CCN(CC)CCNC(=O)c1ccc(N)cc1 [PROCAINAMIDE]", "HepSE_jaundice": 0}
{"Molecule": "CC(C)Cc1ccc(C(C)C(=O)O)cc1 (stereo not given)", "HepSE_jaundice": 1}
{"Molecule": "CC[C@@H](C(N)=O)N1CCCC1=O", "HepSE_jaundice": 0}
{"Molecule": "CC(C)[C@@H]1NC(=O)[C@H](CCCCN)NC(=O)[C@@H](Cc2c[nH]c3ccccc23)NC(=O)[C@H](Cc2ccc(O)cc2)NC(=O)[C@@H](NC(=O)[C@H](N)Cc2ccc3ccccc3c2)CSSC[C@@H](C(=O)N[C@H](C(N)=O)[C@@H](C)O)NC1=O [LANREOTIDE]", "HepSE_jaundice": 0}
{"Molecule": "C[C@]12CCC(=O)C=C1CC[C@@H]1[C@@H]2CC[C@@]2(C)[C@H]1CC[C@]2(C)O", "HepSE_jaundice": 1}
{"Molecule": "CC(C)NCC(O)c1ccc(NS(C)(=O)=O)cc1 (stereo not given)", "HepSE_jaundice": 0}
{"Molecule": "COc1cc(CC2c3c(cc(OC)c(OC)c3OC)CC[N+]2(C)CCCOC(=O)CCC(=O)OCCC[N+]2(C)CCc3cc(OC)c(OC)c(OC)c3C2Cc2cc(OC)c(OC)c(OC)c2)cc(OC)c1OC (stereo not given)", "HepSE_jaundice": 0}
{"Molecule": "C[N+](C)(C)CC(O)CC(=O)[O-] (stereo not given)", "HepSE_jaundice": 0}
{"Molecule": "CN1[C@@H]2CC[C@H]1C[C@@H](OC(c1ccccc1)c1ccccc1)C2", "HepSE_jaundice": 0}
{"Molecule": "NS(=O)(=O)c1cc(C2(O)NC(=O)c3ccccc32)ccc1Cl (stereo not given)", "HepSE_jaundice": 1}
{"Molecule": "CC(=O)N(CC(O)CN(C(C)=O)c1c(I)c(C(=O)NCC(O)CO)c(I)c(C(=O)NCC(O)CO)c1I)c1c(I)c(C(=O)NCC(O)CO)c(I)c(C(=O)NCC(O)CO)c1I (stereo not given)", "HepSE_jaundice": 0}
{"Molecule": "NC(=O)N1c2ccccc2C=Cc2ccccc21 [CARBAMAZEPINE]", "HepSE_jaundice": 1}
{"Molecule": "Nc1ncnc2c1ncn2[C@@H]1O[C@H](CO)[C@@H](O)[C@H]1O", "HepSE_jaundice": 0}
{"Molecule": "Nc1nc(NC2CC2)c2ncn([C@H]3C=C[C@@H](CO)C3)c2n1", "HepSE_jaundice": 0}
